Can you tell me protein stability index for the items I'm about to list?
B1: ZNF449 (parent)
chain: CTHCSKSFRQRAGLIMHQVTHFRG

Variants of: B1
procedure details: protein stability index of a GFP-peptide fusion (GPS, HEK-293T) (PSI 1-6); higher = more stable;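 also: lentivirally expressed fusions sorted by FACS into six bins by GFP to DsRed ratio, PSI derived from sequencing read proportions per bin multiplied by bin number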
condition: c terminus: a fixed tail appended
Please reply with the number alone, leaving off any unit.

Find the recorded protein stability index belonging to R11E and report it.
2.79

Another: F8Y
3.03

Another: Q10K
2.58

Another: C4S
1.33

Another: A12V
1.48

Another: S7P
1.59

Another: I15H
2.2

Another: G24N
2.91

Another: F8Q
2.17

Another: Q10P
1.76

Another: G24V
3.46

Another: T20G
2.06

Another: L14D
2.14

Another: K6D
1.62

Another: M16N
2.86

Another: C4G
1.8

Another: V19Y
2.55

Another: H3K
2.22

Another: A12M
2.25

Another: A12W
2.53

Another: S7R
1.31

Another: C1S
1.91

Another: T20F
2.09

Another: S5N
1.88

Another: I15Y
2.44

Another: F22H
3.29

Another: H3W
1.38

Another: S7V
2.22

Another: H3F
2.09

Another: K6A
4.92

Another: H21F
1.8

Another: C1K
2.66

Another: R9V
3.17

Another: F8H
1.44

Another: I15D
2.93

Another: G24S
2.33

Another: R23K
2.7

Another: F22K
2.06

Another: G24W
3.25

Another: T2I
2.7

Another: R23D
2.49

Another: Q10D
3.41

Another: C4T
2.18

Another: S7D
2.18

Another: S7K
2.62

Another: F8A
1.91

Hey, just so you know, these numbers are from the supplement of paper PMC10567573.
